Assay: Study #1 Phase 1: plasma and urine pharmacokinetics of Compound 1 and Compound 1A after IV infusion of Compound 1 (SAD, MAD, loading regimen)
Conditions: both, human, in vivo, 50 mg
assay-readout: Vd (L)
Respond numerically; units are L and should not be typed.

Ask: Quick one: Vd for Nc1ncccc1-c1cc(Cc2ccc(COc3ccccn3)cc2)no1 ?
Result: 188

* * *

Test: Compound 1 pH solubility at room temperature
Format: physicochemical
Settings: pH 7.5, aqueous buffer, Study A, pH 7.5, saturation not achieved
assay-readout: solubility

Ask: Any idea what solubility was measured for Nc1c(-c2cc(Cc3ccc(COc4ccccn4)cc3)no2)ccc[n+]1COP(=O)([O-])O ?
Result: > 28.5 mg/mL

* * *

Test: Study #2 Phase 1: pharmacokinetics after single IV and single/multiple oral doses of Compound 1, absolute oral bioavailability;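 note: phase 1 study design: one IV dose, then escalating single oral doses, fed versus fasted single oral dosing, and once-daily oral dosing over 14 days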
Settings: human, plasma, po, 400 mg, Tmax, 400 mg Oral Compound 1, fasted, median
assay-readout: Tmax (h)
I only need the number, in h, no unit after it.

Ask: Fill in the blank: the reported Tmax of Nc1ncccc1-c1cc(Cc2ccc(COc3ccccn3)cc2)no1 is ____.
Result: 2.5

* * *

Assay: clinical
Details: both, human, plasma, iv, 150 mg
assay-readout: AUC(0-t) (ng·h/mL)
Your answer should be a plain number; it is taken to be in ng·h/mL.

Ask: Field request: AUC(0-t) | item: Nc1ncccc1-c1cc(Cc2ccc(COc3ccccn3)cc2)no1
Result: 51900

* * *

Test: Study #1 Phase 1: plasma and urine pharmacokinetics of Compound 1 and Compound 1A after IV infusion of Compound 1 (SAD, MAD, loading regimen)
Conditions: both, human, plasma, 50 mg, AUC(0-24), Cohort 7: Compound 1 50 mg/3 hr IV QD × 14 days, Day 1, geometric mean
assay-readout: AUC(0-t) (ng·h/mL)
Entry rule: numbers only, all in ng·h/mL.

Ask: Item Nc1ncccc1-c1cc(Cc2ccc(COc3ccccn3)cc2)no1 [Compound 1A] has what recorded AUC(0-t)?
Result: 6390

* * *

Assay: Study #1 Phase 1: plasma and urine pharmacokinetics of Compound 1 and Compound 1A after IV infusion of Compound 1 (SAD, MAD, loading regimen)
Details: both, human, plasma, 1000 mg, AUC(0-24), Cohort 11: Compound 1 1,000 mg/2 hr IV, single dose, geometric mean
assay-readout: AUC(0-t) (µg·h/mL)
Enter your answer as a number in µg·h/mL; do not include the unit.

Ask: Give the measured AUC(0-t) of Nc1ncccc1-c1cc(Cc2ccc(COc3ccccn3)cc2)no1 [Compound 1A] .
Result: 130

* * *

Experiment: Study #2 Phase 1: effect of food (fed vs fasted) on pharmacokinetics of Compound 1A after 400 mg oral Compound 1;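 note: cohort 1b subjects took one oral dose in both fed and fasted states, across two separate periods (E, F) within the single ascending dose phase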
Conditions: human, plasma, po, 400 mg, t½, Cohort 1B, 400 mg oral Compound 1, Fed, geometric mean
assay-readout: half-life (h)
The reply should contain only the number, in h.

Ask: May I ask what half-life has been recorded for Nc1ncccc1-c1cc(Cc2ccc(COc3ccccn3)cc2)no1 [Compound 1A] ?
Result: 67.5

* * *

Assay: Study #1 Phase 1: plasma and urine pharmacokinetics of Compound 1 and Compound 1A after IV infusion of Compound 1 (SAD, MAD, loading regimen)
Settings: both, human, plasma, 30 mg, AUC(inf), Cohort 2: Compound 1 30 mg/3 hr IV, single dose, geometric mean [geometric %CV]
assay-readout: AUC(0-inf)
Write the numeric value and follow it with the unit.

Ask: Given the compound Nc1ncccc1-c1cc(Cc2ccc(COc3ccccn3)cc2)no1 , what is its reported AUC(0-inf)?
Result: 16600 ng·h/mL

Source of measurements: patent US20210290644A1
